- test system: T1, human GPC3 on cells (human, UniProt P51654 25-563)
- T1 construct: whole, on cells; One molecule is used for both CHO-hGPC3 transfectants and GPC3+ HepG2 cells; The assay field names the cell; also called CHO-hGPC3 (clone 2B10); CHO-human GPC3
- assay notes: flow cytometry, CHO-human GPC3 cells
Below, each of the binders is paired with its reported pEC50 value.
# log scale: pEC50 equals minus log10 of the concentration in mol/L

Query :: # query: pEC50 of entry 47B6 (antibody, V domains shown, Chimeric human IgG1) VH: QVQLQQSGAELMKPGASVKISCKATGYTFSSYWIEWVKQRPGHGLEWIGEILPGSGSTNYNEKFKGKATFTADTSSNTAYMQLSSLTSEDSAVYYCARGYWGQGTLVTVSA VL: DIVMTQAPLSLPVSLGDQASISCRSSQSLVHSNGNTYLHWYLQKPGQSPKLLIYKVSNRFSGVPDRFSGSGSGTDFTLKISRVEAEDLGVYFCSQSTHVPRTFGGGTKLEIK
Result :: 9.42

Query :: Try 30A4 (antibody, V domains shown, Chimeric human IgG1) VH: QVQLQQSGAELVRPGASVKLSCKALGYAFADYEIHWVKQTPVHGLEWIGAIHPGSGGTAYNQTFKGKATLTADKSSTTAYMELSSLTSEDSAVYYCTRYYSFAYWGQGTLVTVSA VL: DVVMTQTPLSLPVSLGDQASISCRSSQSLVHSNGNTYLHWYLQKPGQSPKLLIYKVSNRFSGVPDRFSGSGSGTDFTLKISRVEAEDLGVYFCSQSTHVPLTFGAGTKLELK next.
Result :: 8.43

In the following, a different binder is considered.
Query :: # query: pEC50 of entry 19F1 (antibody, V domains shown, Chimeric human IgG1) VH: QVQLQQSGAELVRPGASVKLSCKALGYTFADYEIHWVKQTPVHGLEWIGAIHPGSGGTAYNQTFEGKATLTADKSSTTAYMELSSLTSEDSAVYYCTRYYSFAYWGQGTLVTVSA VL: DVLMTQTPLSLPVSLGDQASISCRSSQSLVHSNGNTYLHWYLQKPGQSPKLLIYKVSNRFSGVPDRFSGSGSGTDFTLKISRVEAEDLGVYFCSQSTHIPTFGGGTKLELK
Result :: 8.44
